Tested on: Puccinia recondita
assay.info: Use Example 4: preventative control of brown rust on wheat (PUCCRT P7)
Assay type: in vivo
condition.label: inoculated seven days after spraying, 4 ppm, % diseased leaf area
Note to self: use rule met only for % PUCCRT Disease level P7 at 4 ppm readings below 70%; a reading exactly at 70% still gets rule not met.

# compound, assigned.class
measured = [
    ("CO/C=C(/C(=O)OC)c1cccc(Cl)c1CO/N=C(\\COC)c1ccc(F)cc1Cl [compound 93]", "rule met"),
    ("CCOC/C(=N\\OCc1c(Cl)cccc1/C(=N\\OC)C(=O)OC)c1ccc(Cl)cc1 [compound 44]", "rule not met"),
    ("CCOC/C(=N\\OCc1c(Cl)cccc1/C(=N\\OC)C(=O)NC)c1ccccc1Cl [compound 51]", "rule not met"),
    ("COC/C(=N\\OCc1c(Cl)cccc1/C(=N\\OC)C(=O)OC)c1ccc(F)cc1 [compound 1]", "rule met"),
    ("CO/C=C(/C(=O)OC)c1cccc(Br)c1CO/N=C(/C#Cc1ccc(F)cc1)COC [compound 8]", "rule met"),
    ("CO/C=C(/C(=O)OC)c1cccc(Cl)c1CO/N=C(\\COC)c1ccc(Cl)cc1 [compound 35]", "rule met"),
    ("CNC(=O)/C(=N/OC)c1cccc(Cl)c1CO/N=C(\\COC)c1cccc(Cl)c1Cl [compound 75]", "rule met"),
]
